assay: Cmax in Sprague-Dawley rat at 10 mg/kg, po; type: ADME, organism-based; set-up: dose 10 mg/kg, route oral; settings: in vivo

{"smilesRepr": "O=C(O)c1cnn(-c2nc3cnn(Cc4ccc(-c5ccccc5)cc4)c3c(=O)[nH]2)c1", "Cmax": "2710 ng/mL"}

* * *

experiment: Cmax in Sprague-Dawley rat at 1 mg/kg, po; assay type: ADME, organism-based; set-up: dose 1 mg/kg, route oral; details: in vivo

{"smilesRepr": "C[C@@H](c1cc(Cl)ccc1Cl)n1ncc2nc(-n3cc(C(=O)O)cn3)[nH]c(=O)c21", "Cmax, ng/mL": 1840}

* * *

assay: AUC (0 to infinity) in Sprague-Dawley rat at 0.5 mg/kg, iv; format: ADME, organism-based; design: dose 0.5 mg/kg, route intravenous, time infinity; details: in vivo

{"smilesRepr": "O=C(O)c1cnn(-c2nc3cnn(Cc4ccc(-c5ccccc5)cc4)c3c(=O)[nH]2)c1", "AUC(0-inf), ng·h/mL": 5560}

* * *

assay: AUC (0 to infinity) in Sprague-Dawley rat at 10 mg/kg, po; type: ADME, organism-based; set-up: dose 10 mg/kg, time infinity, route oral; settings: in vivo
endpointLabel: AUC(0-inf) (ng·h/mL)

{"smilesRepr": "O=C(O)c1cnn(-c2nc3cnn(Cc4ccc(-c5ccccc5)cc4)c3c(=O)[nH]2)c1", "valueObserved": 17800}

* * *

experiment: Volume of distribution at steady state in Sprague-Dawley rat at 0.5 mg/kg, iv; format: ADME, organism-based; settings: in vivo, read-out: Vdss

{"smilesRepr": "O=C(O)c1cnn(-c2nc3cnn(Cc4ccc(-c5ccccc5)cc4)c3c(=O)[nH]2)c1", "unitAbbrev": "L/kg", "Vd": 0.197}

* * *

assay: AUC (0 to infinity) in Sprague-Dawley rat at 1 mg/kg, po; type: ADME, organism-based; design: dose 1 mg/kg, time infinity, route oral; conditions: in vivo
endpointLabel: AUC(0-inf) (ng·h/mL)

{"smilesRepr": "C[C@@H](c1cc(Cl)ccc1Cl)n1ncc2nc(-n3cc(C(=O)O)cn3)[nH]c(=O)c21", "unitAbbrev": "ng·h/mL", "valueObserved": 23500}

* * *

test: Oral bioavailability in Sprague-Dawley rat at 1 mg/kg; assay type: ADME, organism-based; details: in vivo

{"smilesRepr": "C[C@@H](c1cc(Cl)ccc1Cl)n1ncc2nc(-n3cc(C(=O)O)cn3)[nH]c(=O)c21", "bioavailability [%]": 77}

* * *

experiment: Volume of distribution at steady state in Sprague-Dawley rat at 1 mg/kg, iv; assay type: ADME, organism-based; conditions: in vivo, read-out: Vdss

{"smilesRepr": "C[C@@H](c1cc(Cl)ccc1Cl)n1ncc2nc(-n3cc(C(=O)O)cn3)[nH]c(=O)c21", "unitAbbrev": "L/kg", "Vd": 0.249}

* * *

assay: Cmax in Sprague-Dawley rat at 1 mg/kg, iv; assay type: ADME, organism-based; set-up: dose 1 mg/kg, route intravenous; settings: in vivo

{"smilesRepr": "C[C@@H](c1cc(Cl)ccc1Cl)n1ncc2nc(-n3cc(C(=O)O)cn3)[nH]c(=O)c21", "Cmax (ng/mL)": 12400}
